Please respond with reported Ratio for every item in the list.
assay: Ratio of drug uptake in occipital lobe to cerebellum in anesthetized cynomolgus monkey after 0.5 mins postinjection; format: ADME, organism-based, Macaca fascicularis; conditions: in vivo
Number only, no unit.

What value of Ratio has been reported for the following molecule? O=C(OCC[18F])C1C2CCC(CC1c1cccc(/C=C\Br)c1)N2 (centres undefined)
1.6

Record: O=C(OCCC[18F])C1C2CCC(CC1c1cccc(/C=C\Br)c1)N2 (centres undefined)
1

Record: O=C(OCC[18F])C1C2CCC(CC1c1cccc(/C=C\I)c1)N2 (centres undefined)
0.8

Record: O=C(OCCC[18F])C1C2CCC(CC1c1cccc(/C=C\I)c1)N2 (centres undefined)
0.8

---

tested on: Putamen; assay: Drug uptake in anesthetized cynomolgus monkey brain putamen after 45 mins postinjection; assay type: ADME, organism-based, Macaca fascicularis; set-up: unit not given here; conditions: in vivo, 0.75 h
Binary classification by Drug uptake, with 5 as an inclusive lower bound for Y; all other cases are N.

Could you verify whether the entry O=C(OCC[18F])C1C2CCC(CC1c1ccc(/C=C\I)cc1)N2 (stereo not given) shows Drug uptake of no less than 5?
N

Record: O=C(OCC[18F])C1C2CCC(CC1c1cccc(/C=C\I)c1)N2 (stereo not given)
N

Record: O=C(OCCC[18F])C1C2CCC(CC1c1cccc(/C=C\Br)c1)N2 (stereo not given)
Y

---

test system: Caudate; experiment: Drug uptake in anesthetized cynomolgus monkey brain caudate after 6.5 mins postinjection; format: ADME, organism-based, Macaca fascicularis, Caudate nucleus; conditions: in vivo
Binary classification by Drug uptake, with 2 as an inclusive lower bound for 1 (yes); all other cases are 0 (no).

Could you verify whether the entry O=C(OCC[18F])C1C2CCC(CC1c1ccc(/C=C\I)cc1)N2 (stereo not given) shows Drug uptake of no less than 2?
0 (no)

Record: O=C(OCCC[18F])C1C2CCC(CC1c1cccc(/C=C\I)c1)N2 (stereo not given)
1 (yes)

Record: O=C(OCCC[18F])C1C2CCC(CC1c1cccc(/C=C\Br)c1)N2 (stereo not given)
1 (yes)

Record: O=C(OCC[18F])C1C2CCC(CC1c1cccc(/C=C\Br)c1)N2 (stereo not given)
0 (no)

---

tested on: Medulla; assay: Drug uptake in anesthetized cynomolgus monkey brain medulla after 22.5 mins postinjection; format: ADME, organism-based, Macaca fascicularis; settings: in vivo, 0.375 h
In plain terms, low Drug uptake, meaning strictly below 5, gives 1.0, and everything else gives 0.0.

Hello, is Drug uptake of the following compound strictly smaller than 5? O=C(OCC[18F])C1C2CCC(CC1c1cccc(/C=C\Br)c1)N2 (stereo not given)
1.0

Record: O=C(OCC[18F])C1C2CCC(CC1c1ccc(/C=C\I)cc1)N2 (stereo not given)
1.0

Record: O=C(OCCC[18F])C1C2CCC(CC1c1cccc(/C=C\Br)c1)N2 (stereo not given)
0.0

Record: O=C(OCC[18F])C1C2CCC(CC1c1cccc(/C=C\I)c1)N2 (stereo not given)
1.0

---

Please respond with reported Ratio for every item in the list.
assay: Ratio of drug uptake in caudate to cerebellum in anesthetized cynomolgus monkey after 9.5 mins postinjection; assay type: ADME, organism-based, Macaca fascicularis; details: in vivo

What value of Ratio has been reported for the following compound? O=C(OCC[18F])C1C2CCC(CC1c1ccc(/C=C\I)cc1)N2 (stereo not given)
0.7

Record: O=C(OCCC[18F])C1C2CCC(CC1c1cccc(/C=C\I)c1)N2 (stereo not given)
0.6

Record: O=C(OCC[18F])C1C2CCC(CC1c1cccc(/C=C\Br)c1)N2 (stereo not given)
0.7

Record: O=C(OCCC[18F])C1C2CCC(CC1c1cccc(/C=C\Br)c1)N2 (stereo not given)
0.7

Record: O=C(OCC[18F])C1C2CCC(CC1c1cccc(/C=C\I)c1)N2 (stereo not given)
0.7

---

test system: Caudate; experiment: Drug uptake in anesthetized cynomolgus monkey brain caudate after 145 mins postinjection; assay type: ADME, organism-based, Macaca fascicularis, Caudate nucleus; details: in vivo
Binary classification by Drug uptake, with 3 as an inclusive lower bound for T; all other cases are F.

Could you verify whether the entry O=C(OCCC[18F])C1C2CCC(CC1c1cccc(/C=C\I)c1)N2 (stereo not given) shows Drug uptake of no less than 3?
T

Record: O=C(OCCC[18F])C1C2CCC(CC1c1cccc(/C=C\Br)c1)N2 (stereo not given)
T

Record: O=C(OCC[18F])C1C2CCC(CC1c1cccc(/C=C\Br)c1)N2 (stereo not given)
T

Record: O=C(OCC[18F])C1C2CCC(CC1c1cccc(/C=C\I)c1)N2 (stereo not given)
F

---

tested on: Thalamus; assay: Drug uptake in anesthetized cynomolgus monkey brain thalamus after 165 mins postinjection; type: ADME, organism-based, Macaca fascicularis; parameters: unit not given here; conditions: in vivo, 2.75 h
In plain terms, low Drug uptake, meaning strictly below 4, gives Yes, and everything else gives No.

Hello, is Drug uptake of the following compound strictly smaller than 4? O=C(OCC[18F])C1C2CCC(CC1c1cccc(/C=C\Br)c1)N2 (stereo not given)
Yes

Record: O=C(OCC[18F])C1C2CCC(CC1c1ccc(/C=C\I)cc1)N2 (stereo not given)
Yes

Record: O=C(OCCC[18F])C1C2CCC(CC1c1cccc(/C=C\Br)c1)N2 (stereo not given)
No

Record: O=C(OCCC[18F])C1C2CCC(CC1c1cccc(/C=C\I)c1)N2 (stereo not given)
Yes

Record: O=C(OCC[18F])C1C2CCC(CC1c1cccc(/C=C\I)c1)N2 (stereo not given)
Yes

---

experiment: Protein binding in anesthetized cynomolgus monkey plasma after 30 mins postinjection; format: ADME, organism-based, Macaca fascicularis; details: read-out: PPB (converted)
QUANTITY MEASURED: fraction unbound at 0.5 h

What value of fraction unbound at 0.5 h has been reported for the following compound? O=C(OCC[18F])C1C2CCC(CC1c1cccc(/C=C\I)c1)N2 (stereo unspecified)
0.916

---

test system: Putamen; experiment: Drug uptake in anesthetized cynomolgus monkey brain putamen after 75 mins postinjection; assay type: ADME, organism-based, Macaca fascicularis; parameters: unit not given here; conditions: in vivo, 1.25 h
QUANTITY MEASURED: Drug uptake
Number only, no unit.

What value of Drug uptake has been reported for the following compound? O=C(OCCC[18F])C1C2CCC(CC1c1cccc(/C=C\Br)c1)N2 (stereo not given)
5.63

Record: O=C(OCCC[18F])C1C2CCC(CC1c1cccc(/C=C\I)c1)N2 (stereo not given)
4.92

Record: O=C(OCC[18F])C1C2CCC(CC1c1cccc(/C=C\Br)c1)N2 (stereo not given)
5

Record: O=C(OCC[18F])C1C2CCC(CC1c1ccc(/C=C\I)cc1)N2 (stereo not given)
4.28

Record: O=C(OCC[18F])C1C2CCC(CC1c1cccc(/C=C\I)c1)N2 (stereo not given)
4.28

---

test: Drug uptake in anesthetized cynomolgus monkey brain occipital lobe after 18.5 mins postinjection; format: ADME, organism-based, Macaca fascicularis; details: in vivo
Please respond with reported Drug uptake for every item in the list.
Number only, no unit.

What value of Drug uptake has been reported for the following compound? O=C(OCC[18F])C1C2CCC(CC1c1ccc(/C=C\I)cc1)N2 (stereo not given)
1.81

Record: O=C(OCCC[18F])C1C2CCC(CC1c1cccc(/C=C\I)c1)N2 (stereo not given)
3.85

Record: O=C(OCC[18F])C1C2CCC(CC1c1cccc(/C=C\I)c1)N2 (stereo not given)
2.84

Record: O=C(OCC[18F])C1C2CCC(CC1c1cccc(/C=C\Br)c1)N2 (stereo not given)
2.89

Record: O=C(OCCC[18F])C1C2CCC(CC1c1cccc(/C=C\Br)c1)N2 (stereo not given)
4.35

---

test: Drug uptake in anesthetized cynomolgus monkey brain cerebellum after 12.5 mins postinjection; type: ADME, organism-based, Macaca fascicularis; conditions: in vivo
QUANTITY MEASURED: Drug uptake
Number only, no unit.

What value of Drug uptake has been reported for the following compound? O=C(OCC[18F])C1C2CCC(CC1c1cccc(/C=C\Br)c1)N2 (stereo not given)
3.41

Record: O=C(OCC[18F])C1C2CCC(CC1c1ccc(/C=C\I)cc1)N2 (stereo not given)
2.13

Record: O=C(OCC[18F])C1C2CCC(CC1c1cccc(/C=C\I)c1)N2 (stereo not given)
3.71

Record: O=C(OCCC[18F])C1C2CCC(CC1c1cccc(/C=C\Br)c1)N2 (stereo not given)
5.72

Record: O=C(OCCC[18F])C1C2CCC(CC1c1cccc(/C=C\I)c1)N2 (stereo not given)
4.52

---

Please respond with reported Ratio for every item in the list.
assay: Ratio of drug uptake in pons to cerebellum in anesthetized cynomolgus monkey after 95 mins postinjection; type: ADME, organism-based, Macaca fascicularis; details: in vivo
Number only, no unit.

What value of Ratio has been reported for the following molecule? O=C(OCC[18F])C1C2CCC(CC1c1cccc(/C=C\Br)c1)N2 (stereo not given)
1.4

Record: O=C(OCCC[18F])C1C2CCC(CC1c1cccc(/C=C\Br)c1)N2 (stereo not given)
1.2

Record: O=C(OCCC[18F])C1C2CCC(CC1c1cccc(/C=C\I)c1)N2 (stereo not given)
1.3

Record: O=C(OCC[18F])C1C2CCC(CC1c1ccc(/C=C\I)cc1)N2 (stereo not given)
1.6

Record: O=C(OCC[18F])C1C2CCC(CC1c1cccc(/C=C\I)c1)N2 (stereo not given)
1.2
